- Test system: SARS-CoV-2 (USA-WA1/2020) in Calu-3 cells
- Assay type: cell-based
- CONDITION PARAMETERS: low dose (100 nM), Calu-3, 48 h
PROPERTY LABEL: dsRNA signal, AU Low (AU)
Write the value in AU as a bare number.

Req: # lookup: dsRNA signal, AU Low of O=C(NOCC(O)CO)c1cc(Br)c(F)c(F)c1Nc1ccc(I)cc1F (centres unmarked) [PD318088]
Resp: 11553.5

Req: # lookup: dsRNA signal, AU Low of C=C1C(=O)[C@]23[C@H](O)[C@H]1CC[C@H]2[C@@]12CO[C@]3(O)[C@@H](O)[C@@H]1C(C)(C)CC[C@@H]2O [Oridonin]
Resp: 25375.1

Req: # lookup: dsRNA signal, AU Low of Cn1nccc1Nc1nccc(-c2cc3c(s2)C(C)(C)N(CCN2CCOCC2)C3=O)n1 [LY3214996]
Resp: 22927.9

Req: # lookup: dsRNA signal, AU Low of CN1CCN(Cc2ccc(-c3cnc4[nH]cc(-c5ccc6[nH]ccc6c5)c4c3)cc2)CC1 [URMC-099]
Resp: 7905.7

Req: # lookup: dsRNA signal, AU Low of COc1ccc(C[C@H]2NC[C@H](O)[C@H]2OC(C)=O)cc1 [Anisomycin]
Resp: 2629.3

Req: # lookup: dsRNA signal, AU Low of CN1C(=O)C(Cc2c[nH]c3ccccc23)NC1=S (centres unmarked) [Necrostatin-1]
Resp: 10276.4

Req: # lookup: dsRNA signal, AU Low of CN(c1ncccc1CNc1nc(Nc2ccc3c(c2)CC(=O)N3)ncc1C(F)(F)F)S(C)(=O)=O [PF-562271]
Resp: 690.0

Req: # lookup: dsRNA signal, AU Low of C[C@@H](N)[C@H]1CC[C@H](C(=O)Nc2ccncc2)CC1 [Y-27632]
Resp: 46665.7

Req: # lookup: dsRNA signal, AU Low of COc1cc2ncnc(Nc3cccc(Cl)c3)c2cc1OC [AG-1478]
Resp: 67129.9

Req: # lookup: dsRNA signal, AU Low of COc1cc(C(=O)NC2CCN(C)CC2)c(F)cc1Nc1ncc2c(n1)N(C1CCCC1)CC(F)(F)C(=O)N2C [TAK960]
Resp: 56355.2

Req: # lookup: dsRNA signal, AU Low of COc1nccc(-c2c(-c3ccc(F)cc3)ncn2C2CCC(O)CC2)n1 (centres unmarked) [SB 239063]
Resp: 15855.6

Req: # lookup: dsRNA signal, AU Low of COCCOc1ccc2c(c1)ncn2-c1ccc2cccc(N3CCC(N)CC3)c2n1 [CP-673451]
Resp: 4566.7

Req: # lookup: dsRNA signal, AU Low of O=C(Nc1ccccc1C(=O)NC1CCCCNC1=O)c1cc2ccccc2s1 (centres unmarked) [ANA 12]
Resp: 20498.0

Req: # lookup: dsRNA signal, AU Low of CNc1nc(Nc2cnn([C@H]3CCN(C4COC4)C[C@@H]3F)c2Cl)ncc1C(F)(F)F [GNE-9605]
Resp: 41939.9

Req: # lookup: dsRNA signal, AU Low of NC(=O)c1ncn([C@@H]2O[C@H](CO)[C@@H](O)[C@H]2O)c1N [AICAR]
Resp: 34470.9

Req: # lookup: dsRNA signal, AU Low of Cn1cnc(N)c2ncnc1-2 [3-Methyladenine]
Resp: 26977.2

Req: # lookup: dsRNA signal, AU Low of COc1cccc(-c2cc(=O)c3ccccc3o2)c1N [PD98059]
Resp: 27955.5

Req: # lookup: dsRNA signal, AU Low of Cc1cc(=O)[nH]c(=S)[nH]1 [Methylthiouracil]
Resp: 55636.1

Req: # lookup: dsRNA signal, AU Low of O=C(NCCN1CCCC1)c1cc(-c2ccc(CN3CCOCC3)cc2)nc2ccc(F)cc12 [DDD107498]
Resp: 5409.3

Req: # lookup: dsRNA signal, AU Low of O=C(NOC[C@H](O)CO)c1ccc(F)c(F)c1Nc1ccc(I)cc1F [PD0325901]
Resp: 48059.9

Req: # lookup: dsRNA signal, AU Low of CC[C@@H](N)CNc1ccnc(-c2cc(-c3cnn(C)c3)ccc2O)n1.Cl.Cl [CRT 0066101]
Resp: 45629.7

Req: # lookup: dsRNA signal, AU Low of COc1cc(OC)c(C=C2C(O)=Nc3ccccc32)c(OC)c1 [IC261]
Resp: 46952.8

Req: # lookup: dsRNA signal, AU Low of COc1cc(-c2cc(-c3ccc(N4CCNCC4)cc3)cnc2C)cc(OC)c1OC [LDN-214117]
Resp: 28899.6

Req: # lookup: dsRNA signal, AU Low of Cn1sc(=O)n(Cc2ccccc2)c1=O [TDZD-8]
Resp: 26092.4

Req: # lookup: dsRNA signal, AU Low of OCC1OC(O)CC(O)C1O [2-Deoxy-D-glucose]
Resp: 62378.7

Req: # lookup: dsRNA signal, AU Low of CN(c1ncccc1CNc1nc(Nc2ccc3c(c2)CC(=O)N3)ncc1C(F)(F)F)S(C)(=O)=O [PF-00562271]
Resp: 36485.5

Req: # lookup: dsRNA signal, AU Low of O.O.O.O=C(O)c1ncccc1O.O=C(O)c1ncccc1O.[O]=[V] [VO-Ohpic trihydrate]
Resp: 7631.3

Req: # lookup: dsRNA signal, AU Low of Cc1cn(-c2cc(NC(=O)c3ccc(C)c(Nc4nccc(-c5cccnc5)n4)c3)cc(C(F)(F)F)c2)cn1 [Nilotinib(AMN-107)]
Resp: 33622.0

Req: # lookup: dsRNA signal, AU Low of O=C(O)C[C@H](O)C[C@H](O)/C=C/c1c(C2CC2)nc2ccccc2c1-c1ccc(F)cc1 [Pitavastatin]
Resp: 10215.5

Req: # lookup: dsRNA signal, AU Low of C=C1C[C@@]2(O)O[C@@]3(C[C@H]2C(C)C)[C@@H](C)CC[C@@H]13 [Curcumol]
Resp: 41441.3

Req: # lookup: dsRNA signal, AU Low of COc1ccc2cc(-c3nc(-c4ccc([S+](C)[O-])cc4)[nH]c3-c3ccncc3)ccc2c1 (centres unmarked) [Tie2 kinase inhibitor]
Resp: 16594.7

Req: # lookup: dsRNA signal, AU Low of C/C(O)=C(\C#N)C(=O)Nc1cc(Br)ccc1Br [LFM-A13]
Resp: 42758.8

Req: # lookup: dsRNA signal, AU Low of CCCCCCCCCCCCCC(=O)O[C@@H]1[C@@H](C)[C@@]2(O)[C@@H](C=C(CO)C[C@]3(O)C(=O)C(C)=C[C@@H]23)[C@@H]2C(C)(C)[C@]12OC(C)=O
Resp: 0.0

Req: # lookup: dsRNA signal, AU Low of CN1CCC(CNc2ccc3ncc(-c4cccc(OC(F)(F)F)c4)n3n2)CC1 [SGI-1776 free base]
Resp: 29976.5

Req: # lookup: dsRNA signal, AU Low of O=c1c(O)c(-c2ccc(O)c(O)c2)oc2cc(O)cc(O)c12 [Quercetin dihydrate]
Resp: 6435.1

----------
- System: SARS-CoV-2 (USA-WA1/2020) in Calu-3 cells
- Assay type: cell-based
- CONDITION PARAMETERS: low dose (100 nM), Calu-3, 48 h
Assign dsRNA signal, AU Low to each entry below.
Answer format: number, then unit.

Req: # lookup: dsRNA signal, AU Low of Cn1cc(-c2ccc3nnc(Sc4ccc5ncccc5c4)n3n2)cn1
Resp: 25732.4 AU

Req: # lookup: dsRNA signal, AU Low of Fc1ccc2[nH]ccc2c1-c1nc(N2CCOCC2)c2sc(CN3CCN(CC4CC4)CC3)cc2n1
Resp: 44145.1 AU

Req: # lookup: dsRNA signal, AU Low of CC(C)c1ccc2oc3nc(N)c(C(=O)O)cc3c(=O)c2c1
Resp: 28672.3 AU

Req: # lookup: dsRNA signal, AU Low of COc1cc2c(N3CCN(C(=O)Nc4ccc(OC(C)C)cc4)CC3)ncnc2cc1OCCCN1CCCCC1.Cl [Tandutinib (MLN518) HCl]
Resp: 13615.8 AU

Req: # lookup: dsRNA signal, AU Low of Cc1[nH]nc2ccc(-c3cncc(OC[C@@H](N)Cc4ccccc4)c3)cc12
Resp: 6156.4 AU

Req: # lookup: dsRNA signal, AU Low of COc1c(Cl)cc2c([nH]c3cnccc32)c1NC(=O)c1cccnc1C [MLN120B]
Resp: 0.0 AU

Req: # lookup: dsRNA signal, AU Low of O=c1c(O)c(-c2ccccc2)oc2cc(O)cc(O)c12 [Galangin;3,5,7-Trihydroxyflavone]
Resp: 46015.9 AU

Req: # lookup: dsRNA signal, AU Low of CNC(=O)c1ccc(Nc2ncc(C(F)(F)F)c(NCc3nccnc3N(C)S(C)(=O)=O)n2)cc1
Resp: 56452.3 AU
